- Test target: Ubiquitin-activating enzyme e1, putative (Leishmania donovani (strain BPK282A1)) (UniProt E9BSI1)
- Protocol text: Leishmania donovani Ubiquitin Activating Enzyme (LdE1)
- Assay type: functional
- Parameters: scale not given: direction of the effect not stated beside the values
- Recorded conditions: 30 µM
Potency and affinity values are given separately.
Catalogue of Percent Effect readings, one per entry.
Quantity kind: Percent Effect (%)

* Cc1ncccc1NC(=O)C1=NOC2(CCN(Cc3nccs3)C2)C1 (configuration not stated) | -14.3
* Cc1ccc(-c2cn[nH]c2C2CCCN(c3nccc(N)n3)C2)cc1 (configuration not stated) | 20.8
* Cn1cccc1C(CNC(=O)c1ccc(F)cc1F)N1CCCCCC1 (configuration not stated) | 15.6
* CN(C)C(=O)NC1COC2(CCN(C(=O)Nc3ccccc3)CC2)C1 (configuration not stated) | 18.7
* Cc1cc(C)nc(Nc2cccc(C3CCCN(C)C3)n2)n1 (configuration not stated) | 1.35
* CC(C)c1nnc(NC(=O)NCc2ccc(CO)c(F)c2)s1 | 11.4
* O=C1CCC2(CCCN(c3ncc(F)cn3)CC2)N1CC1CC1 (configuration not stated) | 7.79
* COCc1noc(C2(c3ccc(Br)cc3)CCOCC2)n1 | -2.7
* Cc1n[nH]c(=O)c2c(NC(=O)CN3CCC(O)CC3)oc(C)c12 | 10.3
* CCOC(C)c1nc(CN2CCN(c3nccc(C)n3)CC2)cs1 (configuration not stated) | 0
* Cc1cccc(C2(NC(=O)CCN3C(=O)CCC3=O)CCCC2)c1 | 12.7
* COCCCNC(=O)N1CCCC(c2nncn2C)C1 (configuration not stated) | 2.63

###

- Test target: Ubiquitin-activating enzyme e1, putative (Leishmania donovani (strain BPK282A1))
- Sequence (whole entry): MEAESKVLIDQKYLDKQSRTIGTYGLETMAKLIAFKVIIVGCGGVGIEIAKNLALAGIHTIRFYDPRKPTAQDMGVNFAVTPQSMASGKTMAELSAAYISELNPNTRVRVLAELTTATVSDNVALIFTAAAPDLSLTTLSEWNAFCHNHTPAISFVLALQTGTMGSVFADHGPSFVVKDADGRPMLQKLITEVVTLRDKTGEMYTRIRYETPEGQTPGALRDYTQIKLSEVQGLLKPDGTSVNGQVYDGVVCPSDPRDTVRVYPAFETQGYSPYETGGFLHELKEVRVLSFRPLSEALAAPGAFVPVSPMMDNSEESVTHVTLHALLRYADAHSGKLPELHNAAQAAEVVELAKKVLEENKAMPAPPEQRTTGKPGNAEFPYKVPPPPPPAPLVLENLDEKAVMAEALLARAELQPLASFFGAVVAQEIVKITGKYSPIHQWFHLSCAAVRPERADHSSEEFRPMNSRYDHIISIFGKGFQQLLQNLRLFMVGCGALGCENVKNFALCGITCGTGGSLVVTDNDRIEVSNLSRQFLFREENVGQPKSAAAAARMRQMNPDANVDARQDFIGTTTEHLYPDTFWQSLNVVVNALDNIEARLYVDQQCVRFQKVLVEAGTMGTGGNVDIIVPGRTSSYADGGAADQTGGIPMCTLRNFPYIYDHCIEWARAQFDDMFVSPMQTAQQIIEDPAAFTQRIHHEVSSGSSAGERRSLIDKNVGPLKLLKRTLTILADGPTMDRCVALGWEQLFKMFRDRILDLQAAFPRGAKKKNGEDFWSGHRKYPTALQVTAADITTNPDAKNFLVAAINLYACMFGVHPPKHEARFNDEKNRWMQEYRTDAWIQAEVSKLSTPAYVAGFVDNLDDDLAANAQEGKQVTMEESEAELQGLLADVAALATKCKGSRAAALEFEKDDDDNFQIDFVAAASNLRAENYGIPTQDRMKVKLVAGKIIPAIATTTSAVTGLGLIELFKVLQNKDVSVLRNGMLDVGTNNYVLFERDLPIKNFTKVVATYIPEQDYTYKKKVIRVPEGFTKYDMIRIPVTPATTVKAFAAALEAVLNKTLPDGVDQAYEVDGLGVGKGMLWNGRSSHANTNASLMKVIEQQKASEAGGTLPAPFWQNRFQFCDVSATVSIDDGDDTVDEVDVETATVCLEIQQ
- Protocol text: Leishmania donovani Ubiquitin Activating Enzyme (LdE1)
- Assay type: functional
- Parameters: scale not given: direction of the effect not stated beside the values
- Recorded conditions: 30 µM
Measured potencies and affinities stand elsewhere.
Quantity kind: Percent Effect (%)

* N#CC1(C(=O)NCCCNc2ccc(C(F)(F)F)cn2)CCCC1 | -2.63
* CCN(C(=O)COC)C(c1cccnc1)c1cc(C)cc(C)c1 (centres undefined) | 2.74
* Cc1cnn(CCC(=O)N2CCN(c3ncccc3Cl)CC2)c1 | 3.8
* O=C(NCCNc1cnccn1)N1CCN(Cc2cccnc2)CC1 | 8.86
* O=C(c1cnccn1)N1CCCC2(COCCN(CC3CC3)C2)C1 (centres undefined) | -1.3
* CC(=O)N1CCN(C(=O)C2SCCc3sccc32)CC1 (centres undefined) | 0
* c1csc(-c2nc(CN3CCOC(Cn4cccn4)C3)co2)c1 (centres undefined) | 18.9
* COCC1CC2(CCN(Cc3cnn(C)c3)CC2)CN1c1ncccn1 (centres undefined) | 13
* Cc1cc(C)n(CC2CCCN2C(=O)c2ccc3[nH]nnc3c2)n1 (centres undefined) | 5.48
* CCc1nccn1C1CCCN(C(=O)c2cn3c(C)cccc3n2)C1 (centres undefined) | 10.5
* O=C1CCC(C(=O)NCc2nn(-c3ccccc3)c3c2CCC3)CN1 (centres undefined) | 5.13
* CCS(=O)(=O)N(C)C1CCN(C(=O)c2cccc(Cl)c2)CC1 | 16.2
* Cc1cccnc1NC(=O)CSc1ccc2c(c1)OCCO2 | -4.17
* CCc1csc(C2CCCN(C(=O)C3=NN(CC)C(=O)CC3)C2)n1 (centres undefined) | 7.79
* Cc1nnc(CCNC2CCN(c3ncnc4c(C)csc34)CC2)s1 | 7.79
* O=C([C@H]1CCCO1)N1CC[C@H](O)[C@@H]1Cc1ccncc1 | 5.2
* CCc1nnc2n1CCN(Cc1csc(-c3ccc(C)o3)n1)C2 | 10.3
* COC(=O)CCN1CCCC1c1cccc2c1OCCO2 (centres undefined) | -2.67
* Cc1cc(-c2ccc(C(=O)O)cc2)nc(C2CCCN(C(C)C)C2)n1 (centres undefined) | 12
* CC(Cc1ccco1)NC(=O)Nc1ccc(S(C)(=O)=O)nc1 (centres undefined) | 18.4
* Cn1ccnc1CN1CCN(CC(O)c2cccc(F)c2)CC1 (centres undefined) | 18.2
* COc1ncc(C2(O)CCN(Cc3ccccc3O)CC2)c(OC)n1 | 22.7
* CC(NCC1=Cc2cc(Cl)ccc2OC1)c1nnc2n1CCCC2 (centres undefined) | -2.7
* CN(C)C(=O)[C@@H]1C[C@@H]2CCN(Cc3nccs3)C[C@@H]2O1 | 2.7

From: ChEMBL document CHEMBL3988442
